- study.system: BSA (Bos taurus, UniProt P02769)
- Sequence (P02769 25-607): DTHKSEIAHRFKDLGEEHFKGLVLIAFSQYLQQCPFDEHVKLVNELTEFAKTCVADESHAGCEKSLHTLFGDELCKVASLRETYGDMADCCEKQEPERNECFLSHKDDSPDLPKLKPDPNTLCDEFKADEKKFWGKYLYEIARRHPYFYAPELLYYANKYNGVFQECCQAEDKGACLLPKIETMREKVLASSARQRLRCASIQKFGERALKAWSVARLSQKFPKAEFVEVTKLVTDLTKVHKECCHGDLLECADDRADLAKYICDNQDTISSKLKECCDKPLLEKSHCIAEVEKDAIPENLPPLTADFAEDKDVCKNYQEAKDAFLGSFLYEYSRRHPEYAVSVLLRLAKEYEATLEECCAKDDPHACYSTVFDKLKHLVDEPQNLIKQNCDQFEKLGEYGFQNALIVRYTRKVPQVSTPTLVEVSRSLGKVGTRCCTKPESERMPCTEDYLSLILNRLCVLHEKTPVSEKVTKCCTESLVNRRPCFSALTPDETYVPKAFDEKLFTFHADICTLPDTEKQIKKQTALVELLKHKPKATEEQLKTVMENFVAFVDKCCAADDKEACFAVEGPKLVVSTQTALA
- assay.info: in vitro
- run.parameters: bovine
measured.quantity: fraction unbound at 6 h

Can you share its fraction unbound at 6 h? I mean this compound: Oc1ccc2cc[nH]c2c1 [6-Hydroxyindole, 6-hydroxyindole] 0.84 to 0.97
